Assay Method Text: Inhibition of Drosophila melanogaster GABA receptor
Metric: IC50
The reply should consist of the numeric value with the unit placed after it.

Q: Name the recorded IC50 for Cc1cc(C2=NO[C@@](c3cc(Cl)c(Cl)c(Cl)c3)(C(F)(F)F)C2)sc1C(=O)NCC(=O)NCC(F)(F)F .
Ans: 23.8 nM
